Target: Sulfhydryl oxidase 1 (Homo sapiens, UniProt O00391)
Sequence (O00391 whole entry): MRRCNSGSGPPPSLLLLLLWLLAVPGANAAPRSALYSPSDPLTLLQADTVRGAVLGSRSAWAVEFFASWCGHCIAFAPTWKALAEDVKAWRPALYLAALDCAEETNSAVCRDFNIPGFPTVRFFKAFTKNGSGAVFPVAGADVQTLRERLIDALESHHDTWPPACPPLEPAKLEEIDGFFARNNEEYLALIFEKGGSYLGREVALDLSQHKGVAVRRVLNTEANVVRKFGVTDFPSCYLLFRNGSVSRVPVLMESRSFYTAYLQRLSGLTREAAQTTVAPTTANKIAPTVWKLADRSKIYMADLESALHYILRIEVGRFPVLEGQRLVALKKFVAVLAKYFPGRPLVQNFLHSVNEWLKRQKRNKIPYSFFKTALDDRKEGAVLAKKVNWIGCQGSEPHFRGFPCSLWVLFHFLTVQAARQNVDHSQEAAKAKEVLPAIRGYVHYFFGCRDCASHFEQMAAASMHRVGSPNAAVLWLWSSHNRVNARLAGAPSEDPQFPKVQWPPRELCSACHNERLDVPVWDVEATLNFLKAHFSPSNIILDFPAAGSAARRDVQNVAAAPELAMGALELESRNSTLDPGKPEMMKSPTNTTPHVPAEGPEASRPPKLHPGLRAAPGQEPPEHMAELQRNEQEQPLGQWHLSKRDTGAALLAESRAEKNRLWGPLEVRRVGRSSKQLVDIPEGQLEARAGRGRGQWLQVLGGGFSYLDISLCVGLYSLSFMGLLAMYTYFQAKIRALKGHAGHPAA
RECORDED_METRIC: pKd
Reminder that pKd is minus the log10 of a molar concentration.

Query: Quote pKd reported for COc1cccc(C(=O)Nc2ccc(N3CCCC3)cc2)c1 please.
Result: 4.70
